Provenance of the data: ChEMBL document CHEMBL1201862

Test system: BT-549
Experiment: NCI tumour cell line growth inhibition, 48 h
The source made the active and inactive calls. Cut-off read from the data, not from the text of the source: active = GI50 up to about 1.1 µM and inactive = higher.
For each entry below, report its GI50 value.

Would you please look over these solved cases?
CC(=O)NC(CCC(=O)C=[N+]=[N-])C(=O)O (stereo not drawn)    > 100 µM (inactive)
Clc1cc(OC2C3CC4CC(C3)CC2C4)nc(Cl)n1 (stereo not drawn)    19.8 µM (inactive)
CC(=O)OC[C@@]1(C)[C@@H]2[C@@H]3[C@@]4(CO[C@]3(C)C(=O)[C@@]3(OC(C)=O)C[C@H](C)[C@H](OC(C)=O)[C@@H]3[C@H]4OC(C)=O)[C@H](OC(=O)c3ccccc3)C[C@@H]21    > 100 µM (inactive)

Batch: GI50 for all items listed.
1. O=c1oc(-c2ccccc2)c(-c2ccccc2)n1-c1ccc(Br)cc1
2. COc1ccc(C(OCC2OC(n3cnc4c(=O)n(Cc5ccccc5[N+](=O)[O-])nnc43)C(O)C2O)(c2ccccc2)c2ccc(OC)cc2)cc1 (stereo not drawn)
3. C=C1C(=O)C[C@H]2C(=C)C(=O)O[C@@H]2C2C1CC[C@@]2(C)O (stereo partly drawn)
4. Cn1c(=O)n(CC(Br)CBr)c(=O)n(CC(Br)CBr)c1=O (stereo not drawn)
5. CN(C)CCCC12CCCCC1=Nc1ccccc12 (stereo not drawn)

Result:
25.5 µM (inactive)
16.4 µM (inactive)
19.8 µM (inactive)
67.9 µM (inactive)
> 100 µM (inactive)
